Target: Neuronal acetylcholine receptor; alpha4/beta2 (Homo sapiens, UniProt P17787+P43681)
Sequence (P17787 whole entry): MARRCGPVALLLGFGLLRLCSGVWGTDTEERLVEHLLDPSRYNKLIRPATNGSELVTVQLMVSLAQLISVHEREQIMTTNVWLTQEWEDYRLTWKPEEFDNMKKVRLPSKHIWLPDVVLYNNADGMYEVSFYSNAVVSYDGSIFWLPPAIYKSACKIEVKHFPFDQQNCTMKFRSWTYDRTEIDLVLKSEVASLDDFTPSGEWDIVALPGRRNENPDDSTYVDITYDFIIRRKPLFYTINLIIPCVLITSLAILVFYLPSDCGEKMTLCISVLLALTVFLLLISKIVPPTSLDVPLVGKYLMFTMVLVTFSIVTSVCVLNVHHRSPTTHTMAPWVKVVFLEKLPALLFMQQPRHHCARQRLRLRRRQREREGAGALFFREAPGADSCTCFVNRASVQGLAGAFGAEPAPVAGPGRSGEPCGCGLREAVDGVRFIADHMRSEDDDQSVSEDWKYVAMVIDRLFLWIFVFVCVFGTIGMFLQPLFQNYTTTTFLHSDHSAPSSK
Sequence (P43681 whole entry): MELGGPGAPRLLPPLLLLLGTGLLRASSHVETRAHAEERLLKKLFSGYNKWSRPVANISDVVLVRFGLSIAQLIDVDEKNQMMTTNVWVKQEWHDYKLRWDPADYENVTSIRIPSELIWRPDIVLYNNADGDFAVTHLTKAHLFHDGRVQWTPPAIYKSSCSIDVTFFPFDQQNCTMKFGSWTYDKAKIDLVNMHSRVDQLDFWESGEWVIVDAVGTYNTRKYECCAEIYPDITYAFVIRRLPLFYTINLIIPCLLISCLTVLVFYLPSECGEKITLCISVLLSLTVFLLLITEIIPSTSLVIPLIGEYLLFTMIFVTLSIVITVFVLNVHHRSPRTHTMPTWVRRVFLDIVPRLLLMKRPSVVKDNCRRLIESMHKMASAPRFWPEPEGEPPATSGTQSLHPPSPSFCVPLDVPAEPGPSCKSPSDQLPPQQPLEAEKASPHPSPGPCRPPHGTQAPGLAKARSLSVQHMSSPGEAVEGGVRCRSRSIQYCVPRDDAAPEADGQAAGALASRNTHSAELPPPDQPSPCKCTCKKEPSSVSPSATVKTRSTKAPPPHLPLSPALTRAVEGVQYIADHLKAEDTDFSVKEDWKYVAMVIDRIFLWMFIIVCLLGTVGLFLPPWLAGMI
Test: Inhibition of alpha4beta2 nAChR (unknown origin)
Catalogue of compounds with associated pKi
Scale: pKi equals -log10([C]), with [C] in mol/L.

                              compound  reported_measurement
0  Clc1cc2c(cn1)C1CNCC(C2)C1 (racemic)                  9.30

In the following, a different compound is considered.
[ask] Data request, read-out pKi, for Clc1ccc2c(n1)CC1CNCC2C1 (racemic)
[reply] 8.46

====

Biological target: Steroid 17-alpha-hydroxylase/17,20 lyase (Homo sapiens, UniProt P05093)
Sequence (P05093 whole entry): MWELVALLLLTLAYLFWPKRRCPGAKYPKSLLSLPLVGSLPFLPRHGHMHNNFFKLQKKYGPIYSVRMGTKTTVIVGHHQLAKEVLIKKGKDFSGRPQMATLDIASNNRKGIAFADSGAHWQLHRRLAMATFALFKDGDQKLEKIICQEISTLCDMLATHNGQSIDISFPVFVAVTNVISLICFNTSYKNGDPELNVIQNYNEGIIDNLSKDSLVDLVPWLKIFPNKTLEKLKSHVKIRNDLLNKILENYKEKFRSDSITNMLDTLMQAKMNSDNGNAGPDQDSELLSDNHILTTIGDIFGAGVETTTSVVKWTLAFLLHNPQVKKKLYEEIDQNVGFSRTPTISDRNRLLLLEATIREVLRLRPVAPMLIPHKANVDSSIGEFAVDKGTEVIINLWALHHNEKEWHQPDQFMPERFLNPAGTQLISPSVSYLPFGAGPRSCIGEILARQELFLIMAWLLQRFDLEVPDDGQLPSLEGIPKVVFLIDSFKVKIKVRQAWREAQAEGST
Test: Reversible inhibition of human cytochrome P450 17alpha
Measurement label: pIC50
Reminder that pIC50 is minus the log10 of a molar concentration.

[ask] # query: pIC50 of entry `C[C@]12CC[C@H]3[C@@H](CC=C4C[C@@H](O)CC[C@@]43C)[C@@H]1CC[C@H]2c1ccncc1`
[reply] 7.57
